All figures here come from PubChem BioAssay (EPA / NIEHS).

Measurement Notes: BSK_SAg_Proliferation: Cell Proliferation Assessment in the BioMAP Diversity Plus: SAg Assay (AID 2283095);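 also: relative cell number as total protein by SRB absorbance in sub-confluent culture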
Assay Context: primary human HUVEC with PBMC
Active and inactive are the calls of the source. The calls were made as follows: active = hit-call score of the fitted dose curve at least 0.9, where 1 is the maximum; inactive = score below 0.9.
Your reply should match one of these outcome classes. y (active), n (inactive)

[ask] Could you kindly confirm the outcome this assay logged for Cc1c(F)c(F)c(COC(=O)C2C(/C=C(\Cl)C(F)(F)F)C2(C)C)c(F)c1F (stereo not given) ?
[reply] y

[ask] Each molecule tested received a call. Report the one for `Cc1cc(Cl)ccc1OCC(=O)O` .
[reply] n

[ask] What did this assay record as the result for `CCOc1cc(Oc2ccc(C(F)(F)F)cc2Cl)ccc1[N+](=O)[O-]` ?
[reply] y

[ask] Recorded test outcome, item `N#Cc1cc(Br)c(O)c(Br)c1`
[reply] y

[ask] What did this assay record as the result for `COc1nc(NC(C)C)nc(NC(C)C)n1` ?
[reply] n

[ask] Tell me the recorded outcome of this test for `COC(=O)c1ccccc1C(=O)OC` .
[reply] n

[ask] Hello, I am checking results. What call was entered for CC1COC(Cn2cncn2)(c2ccc(Oc3ccc(Cl)cc3)cc2Cl)O1 (stereo not given) ?
[reply] y

[ask] What classification did CCOC(=O)C(Cl)Cc1cc(-n2nc(C)n(C(F)F)c2=O)c(F)cc1Cl (stereo not given) end up with in this test?
[reply] y

[ask] Assay outcome for `CNC(=S)S` : what was it?
[reply] y

[ask] Answer briefly: the call reported for CCON=C(CC)C1=C(O)CC(c2c(C)cc(C)cc2C)CC1=O (stereo not given) in this assay.
[reply] n

[ask] Please let me know the test result on file for CC(C)C1(C)N=C(c2nc3ccccc3cc2C(=O)O)NC1=O (stereo not given) .
[reply] n

[ask] Assay outcome for N#CC(CCc1ccc(Cl)cc1)(Cn1cncn1)c1ccccc1 (stereo not given) : what was it?
[reply] y

[ask] Could you kindly confirm the outcome this assay logged for `CON(C)C(=O)Nc1ccc(Cl)c(Cl)c1` ?
[reply] n

[ask] How did this test come out for `C=CCC1=C(C)[C@@H](OC(=O)[C@@H]2[C@@H](C=C(C)C)C2(C)C)CC1=O` ?
[reply] y

[ask] GET /call?item= `CC1=C(C(=O)Nc2ccccc2)SCCO1` returns the recorded outcome of this test.
[reply] n

[ask] How did this test come out for `Fc1ccc(Oc2ccnc3cc(Cl)cc(Cl)c23)cc1` ?
[reply] y

[ask] What classification did COP(N)(=O)SC (stereo not given) end up with in this test?
[reply] n

[ask] What did this assay record as the result for `CCCN(CCC)c1c([N+](=O)[O-])cc(S(N)(=O)=O)cc1[N+](=O)[O-]` ?
[reply] y

[ask] What is the recorded call for this molecule in the test? N#Cc1nn(-c2c(Cl)cc(C(F)(F)F)cc2Cl)c(N)c1S(=O)C(F)(F)F (stereo not given)
[reply] y

[ask] Please let me know the test result on file for `COc1ccc(C(c2ccc(OC)cc2)C(Cl)(Cl)Cl)cc1` .
[reply] y

[ask] Recorded test outcome, item `CC(C)Oc1cc(-n2nc(C(C)(C)C)oc2=O)c(Cl)cc1Cl`
[reply] y

[ask] Kindly provide the recorded test outcome for the following molecule: OC(c1ccc(Cl)cc1)(c1cncnc1)c1ccccc1Cl (stereo not given)
[reply] y

[ask] Please indicate how the test categorized CCOC(=O)CC(SP(=S)(OC)OC)C(=O)OCC (stereo not given) .
[reply] n

[ask] Entry `O=C(Nc1ccccc1)Nc1ccnc(Cl)c1` : call = ?
[reply] y

[ask] So what was the verdict on `CCNc1nc(Cl)nc(NC(C)C)n1` in this test?
[reply] n
